Sourced from paper PMC10818416

# target.desc: factor Xa (FXa) (Homo sapiens, UniProt P00742)
# Construct: gene F10
# Sequence (P00742 41-179): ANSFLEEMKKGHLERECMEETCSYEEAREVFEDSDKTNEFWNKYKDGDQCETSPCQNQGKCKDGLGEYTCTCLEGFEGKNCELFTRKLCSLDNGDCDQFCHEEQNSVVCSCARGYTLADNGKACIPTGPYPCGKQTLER
# Sequence (P00742 235-488): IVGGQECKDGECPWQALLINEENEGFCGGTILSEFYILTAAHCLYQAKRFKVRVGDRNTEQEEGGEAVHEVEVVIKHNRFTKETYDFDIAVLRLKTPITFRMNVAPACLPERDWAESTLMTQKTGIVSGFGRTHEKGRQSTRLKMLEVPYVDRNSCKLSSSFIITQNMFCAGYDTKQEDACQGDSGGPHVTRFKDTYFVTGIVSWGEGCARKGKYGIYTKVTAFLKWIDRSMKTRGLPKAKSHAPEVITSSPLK
# experimental.protocol: chromogenic substrate hydrolysis, […] nm
# Type: biochemical
# details: […] enzyme, […] S2765, pH […], up to […] DMSO
result.type: IC50 (µM)
Provide only the numeric value, understood in µM.

GET /values?readout=IC50&item= COC(=O)C=C1SC(NN=C2C(=O)N3c4c2cc(I)cc4C(C)CC3(C)C)=NC1=O (mixture of isomers)
4.23

---

Listed compounds paired with reported IC50
# target.desc: factor XIa (FXIa) (Homo sapiens, UniProt P03951)
# Construct: gene F11
# Sequence (P03951 19-387): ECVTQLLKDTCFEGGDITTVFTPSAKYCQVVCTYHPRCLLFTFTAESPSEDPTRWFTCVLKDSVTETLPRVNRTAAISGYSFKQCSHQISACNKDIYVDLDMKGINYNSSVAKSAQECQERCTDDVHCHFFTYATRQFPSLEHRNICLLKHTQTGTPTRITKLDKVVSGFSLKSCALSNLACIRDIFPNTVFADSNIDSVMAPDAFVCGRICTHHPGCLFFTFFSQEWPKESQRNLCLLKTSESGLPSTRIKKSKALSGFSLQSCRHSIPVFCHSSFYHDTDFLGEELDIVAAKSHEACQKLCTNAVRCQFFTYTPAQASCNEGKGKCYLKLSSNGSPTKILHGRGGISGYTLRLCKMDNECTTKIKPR
# Sequence (P03951 388-625): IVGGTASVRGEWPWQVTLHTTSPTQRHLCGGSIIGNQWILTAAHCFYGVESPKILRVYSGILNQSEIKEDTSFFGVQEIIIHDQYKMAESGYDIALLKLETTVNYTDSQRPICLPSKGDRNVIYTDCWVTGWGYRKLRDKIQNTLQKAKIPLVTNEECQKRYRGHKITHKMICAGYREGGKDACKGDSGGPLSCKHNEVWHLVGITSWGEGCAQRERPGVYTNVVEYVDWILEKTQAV
# experimental.protocol: chromogenic substrate hydrolysis, […] nm
# Format: biochemical
Provide only the numeric value, understood in µM.

The cases that follow already have their IC50 on record.
1) COC(=O)/C=C1\SC(N/N=C2\C(=O)N3c4c2cc(Br)cc4C(C)(c2ccccc2)CC3(C)C)=NC1=O (centres unmarked) ... 3.87
2) COC(=O)/C=C1\SC(N/N=C2\C(=O)N3c4c2cc(Br)cc4C(C)(c2ccc(Cl)cc2)CC3(C)C)=NC1=O (centres unmarked) ... 3.61
3) COC(=O)/C=C1\SC(N/N=C2\C(=O)N3c4c(cc(C)c(C)c42)C(C)CC3(C)C)=NC1=O (centres unmarked) ... 7.97
4) COC(=O)/C=C1\SC(N/N=C2\C(=O)N3c4c2cc(OC)cc4C(C)CC3(C)C)=NC1=O (centres unmarked) ... 8.1
5) COC(=O)/C=C1\SC(N/N=C2\C(=O)N3c4c2cc(Cl)cc4C(C)(c2ccccc2)CC3(C)C)=NC1=O (centres unmarked) ... 7.21

GET /values?readout=IC50&item= COC(=O)/C=C1\SC(N/N=C2\C(=O)N3c4c2cccc4C(C)(c2ccccc2)CC3(C)C)=NC1=O (centres unmarked)
11.5

GET /values?readout=IC50&item= COC(=O)/C=C1\SC(N/N=C2\C(=O)N3c4c2cc(Cl)cc4C(C)(c2ccc(Cl)cc2)CC3(C)C)=NC1=O (centres unmarked)
4.59

GET /values?readout=IC50&item= COC(=O)/C=C1\SC(N/N=C2\C(=O)N3c4c2cc(Cl)cc4C(C)CC3(C)C)=NC1=O (centres unmarked)
12.2
